The molecules listed here are annotated with their hEphB1-SEAP-: absorbance at 450 nm, percentage with respect to hEphA4-SEAP-His as 100%.
# SYSTEM_TESTED: T1, human EphB1 (Homo sapiens, UniProt P54762)
# T1 construct: a protein of the extracellular region of each human Eph receptor fused with the SEAP protein and the His tag; made in house; host or cells: Expi293F cells (culture supernatant)
# T1 sequence (P54762 18-540 limits assumed): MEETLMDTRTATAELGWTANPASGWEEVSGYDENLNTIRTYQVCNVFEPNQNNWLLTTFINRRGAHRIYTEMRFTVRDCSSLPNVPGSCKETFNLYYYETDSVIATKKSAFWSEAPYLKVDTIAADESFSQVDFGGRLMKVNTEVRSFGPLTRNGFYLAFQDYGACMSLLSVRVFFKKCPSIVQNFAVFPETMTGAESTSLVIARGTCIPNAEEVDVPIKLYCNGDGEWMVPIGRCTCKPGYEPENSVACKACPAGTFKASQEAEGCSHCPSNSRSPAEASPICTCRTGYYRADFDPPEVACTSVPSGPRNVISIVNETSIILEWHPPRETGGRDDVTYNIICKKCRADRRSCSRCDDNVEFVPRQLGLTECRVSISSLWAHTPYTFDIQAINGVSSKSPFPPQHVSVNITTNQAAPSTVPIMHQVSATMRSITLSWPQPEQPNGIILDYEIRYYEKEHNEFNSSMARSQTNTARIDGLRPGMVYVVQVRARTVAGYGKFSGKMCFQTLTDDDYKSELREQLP
# ASSAY_REMARKS: Selectivity ELISA of humanized antibodies for human Eph receptor
# Assay type: binding
# CONDITION: coated protein 1 nM
VALUE_TYPE: hEphB1-SEAP-: absorbance at 450 nm, percentage with respect to hEphA4-SEAP-His as 100% (%)

# MOLECULE, MEASUREMENT_UNITS, VALUE_MEASURED
records = [
    ("83 (antibody, V domains shown, constant regions without entry; synthetic humanized antibody light chain variable region sequence; synthetic humanized antibody heavy chain variable region sequence) VL: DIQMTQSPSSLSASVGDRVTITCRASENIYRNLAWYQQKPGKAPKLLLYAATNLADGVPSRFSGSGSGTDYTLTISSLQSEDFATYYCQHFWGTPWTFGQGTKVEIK VH: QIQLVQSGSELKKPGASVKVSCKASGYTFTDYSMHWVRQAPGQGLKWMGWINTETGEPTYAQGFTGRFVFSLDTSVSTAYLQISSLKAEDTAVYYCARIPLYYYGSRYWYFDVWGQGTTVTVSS", "%", 5.6),
    ("142 (antibody, V domains shown, synthetic humanized antibody heavy chain variable region sequence; synthetic humanized antibody light chain variable region sequence) VH: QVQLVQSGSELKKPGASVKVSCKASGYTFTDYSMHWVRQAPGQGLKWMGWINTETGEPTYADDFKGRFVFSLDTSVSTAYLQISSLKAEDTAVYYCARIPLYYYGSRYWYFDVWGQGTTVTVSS VL: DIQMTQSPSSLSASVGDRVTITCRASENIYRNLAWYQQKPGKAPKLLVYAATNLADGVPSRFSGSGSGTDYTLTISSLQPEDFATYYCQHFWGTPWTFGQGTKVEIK", "%", 5.6),
    ("69 (antibody, V domains shown, synthetic humanized antibody heavy chain variable region sequence; synthetic humanized antibody light chain variable region sequence) VH: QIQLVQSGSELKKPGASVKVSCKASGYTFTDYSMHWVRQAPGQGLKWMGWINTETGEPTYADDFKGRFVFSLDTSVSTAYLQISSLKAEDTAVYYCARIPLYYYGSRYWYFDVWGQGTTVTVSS VL: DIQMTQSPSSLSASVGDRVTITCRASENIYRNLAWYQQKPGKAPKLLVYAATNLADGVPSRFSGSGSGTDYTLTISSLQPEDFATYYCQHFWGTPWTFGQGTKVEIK", "%", 5.6),
    ("76 (antibody, V domains shown, synthetic humanized antibody heavy chain variable region sequence; synthetic humanized antibody light chain variable region sequence) VH: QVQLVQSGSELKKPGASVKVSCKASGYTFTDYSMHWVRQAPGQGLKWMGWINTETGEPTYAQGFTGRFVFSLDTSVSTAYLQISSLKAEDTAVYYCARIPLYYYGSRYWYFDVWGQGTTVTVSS VL: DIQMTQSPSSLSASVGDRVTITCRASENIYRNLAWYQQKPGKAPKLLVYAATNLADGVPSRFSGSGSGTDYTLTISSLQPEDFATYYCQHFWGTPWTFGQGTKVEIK", "%", 4.9),
    ("141 (antibody, V domains shown, synthetic humanized antibody heavy chain variable region sequence; synthetic humanized antibody light chain variable region sequence) VH: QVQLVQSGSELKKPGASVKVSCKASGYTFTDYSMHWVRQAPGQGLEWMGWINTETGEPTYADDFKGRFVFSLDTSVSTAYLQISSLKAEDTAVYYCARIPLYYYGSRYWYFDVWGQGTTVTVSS VL: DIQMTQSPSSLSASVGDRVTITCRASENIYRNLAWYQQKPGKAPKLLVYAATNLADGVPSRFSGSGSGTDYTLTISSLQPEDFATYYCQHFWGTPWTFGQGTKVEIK", "%", 5.4),
    ("134 (antibody, V domains shown, synthetic humanized antibody heavy chain variable region sequence; synthetic humanized antibody light chain variable region sequence) VH: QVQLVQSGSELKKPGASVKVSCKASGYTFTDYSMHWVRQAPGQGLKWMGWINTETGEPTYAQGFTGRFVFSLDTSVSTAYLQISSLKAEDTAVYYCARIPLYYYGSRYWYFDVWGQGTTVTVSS VL: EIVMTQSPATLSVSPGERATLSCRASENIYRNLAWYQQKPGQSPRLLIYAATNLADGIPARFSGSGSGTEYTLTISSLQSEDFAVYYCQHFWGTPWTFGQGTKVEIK", "%", 5.1),
    ("143 (antibody, V domains shown, synthetic humanized antibody heavy chain variable region sequence; synthetic humanized antibody light chain variable region sequence) VH: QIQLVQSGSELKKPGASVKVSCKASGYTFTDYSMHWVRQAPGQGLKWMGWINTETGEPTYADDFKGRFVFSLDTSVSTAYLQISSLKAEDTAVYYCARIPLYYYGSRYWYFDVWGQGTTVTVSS VL: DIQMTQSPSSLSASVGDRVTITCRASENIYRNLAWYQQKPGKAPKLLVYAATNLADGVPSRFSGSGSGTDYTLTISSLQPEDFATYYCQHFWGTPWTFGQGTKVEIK", "%", 5.9),
]
